test system: BXPC-3; experiment: Antiproliferative activity against human BxPC3 cells assessed as inhibition of cell growth after 72 hrs by sulforhodamine B assay; assay type: functional, cell-based; settings: BXPC-3, 72 h
# IC50 annotations
Respond with the figure and its unit, in that order.

Consider the worked cases shown below.
Problem: Give IC50 (BXPC-3) of the following compound: `CCCCCC[C@@H](C)C[C@@H](C)/C=C/C(=O)N[C@H]1C[C@@]2(O[C@@H]1OC)[C@@H]1O[C@@H]1[C@](O)(CC(C)=O)[C@@H]1O[C@@H]12`
Solution: 10.5 µM

Problem: Same lookup for `CCCCCC[C@@H](C)C[C@@H](C)/C=C/C(N)=O` , please.
Solution: 67.7 µM

Problem: Same lookup for `CCCCCC[C@@H](C)C[C@@H](C)/C=C/C(=O)N[C@H]1C[C@@]2(O[C@H]1O)[C@@H]1O[C@@H]1[C@](O)(CC(C)=O)[C@@H]1O[C@@H]12` , please.
Solution: 5.96 µM

Next:
Problem: Give IC50 (BXPC-3) of the following compound: `CCCCCC[C@@H](C)C[C@@H](C)/C=C/C(=O)N[C@@H]1C[C@@]2(O[C@@H]1O)[C@@H]1O[C@@H]1[C@](O)(CC(C)=O)[C@@H]1O[C@@H]12`
Solution: 7.3 µM

###

test system: PC-3; test: Antiproliferative activity against human PC3 cells assessed as inhibition of cell growth after 72 hrs by sulforhodamine B assay; type: functional, cell-based; details: PC-3, 72 h
# IC50 annotations
The figure you give is taken to be in µM; do not add the unit.

Problem: Which IC50 is reported for this compound? `CCCCCC[C@@H](C)C[C@@H](C)/C=C/C(=O)N[C@H]1C[C@@]2(O[C@@H]1OC)[C@@H]1O[C@@H]1[C@](O)(CC(C)=O)[C@@H]1O[C@@H]12`
Solution: 6.33

Problem: Same lookup for `CCCCCC[C@@H](C)C[C@@H](C)/C=C/C(=O)N[C@H]1C[C@@]2(O[C@H]1O)[C@@H]1O[C@@H]1[C@](O)(CC(C)=O)[C@@H]1O[C@@H]12` , please.
Solution: 8.7

Problem: Same lookup for `CCCCCC[C@@H](C)C[C@@H](C)/C=C/C(=O)N[C@@H]1C[C@@]2(O[C@@H]1O)[C@@H]1O[C@@H]1[C@](O)(CC(C)=O)[C@@H]1O[C@@H]12` , please.
Solution: 7.6

###

system: LS180; test: Antiproliferative activity against human LS180 cells assessed as inhibition of cell growth after 72 hrs by sulforhodamine B assay; assay type: functional, cell-based; conditions: LS180, 72 h
# IC50 annotations
The figure you give is taken to be in µM; do not add the unit.

Problem: Which IC50 is reported for this compound? `CCCCCC[C@@H](C)C[C@@H](C)/C=C/C(=O)N[C@H]1C[C@@]2(O[C@H]1O)[C@@H]1O[C@@H]1[C@](O)(CC(C)=O)[C@@H]1O[C@@H]12`
Solution: 17.4

Problem: Same lookup for `CCCCCC[C@@H](C)C[C@@H](C)/C=C/C(=O)N[C@H]1C[C@@]2(O[C@@H]1OC)[C@@H]1O[C@@H]1[C@](O)(CC(C)=O)[C@@H]1O[C@@H]12` , please.
Solution: 13.9

Problem: Same lookup for `CCCCCC[C@@H](C)C[C@@H](C)/C=C/C(N)=O` , please.
Solution: 64.5

Pending compound:
Problem: Which IC50 is reported for this compound? `CCCCCC[C@@H](C)C[C@@H](C)/C=C/C(=O)N[C@@H]1C[C@@]2(O[C@@H]1O)[C@@H]1O[C@@H]1[C@](O)(CC(C)=O)[C@@H]1O[C@@H]12`
Solution: 17
